Tested on: NCI-H358 human non-small cell lung cancer
Measurement Description: NCI-H358 CCK-8 proliferation assay
Assay type: cell-based
Condition: NCI-H358 cells, 72 hr
Quick list: EC50 per entry.

# example entries with known answers
Field EC50 (entry C=CC(=O)N1CCN(c2nc(OC[C@@H]3CCN(C(=O)c4cc(CC)c(O)cc4O)C3)nc3c2CCN(c2cccc4cccc(Cl)c24)C3)C[C@@H]1CC#N [Compound 158] ) reads > 1 µM

Field EC50 (entry CCC(=O)N1CCN(c2nc(NCCC(=O)NCc3ccc(-n4c(O)nnc4-c4cc(CC)c(O)cc4O)cc3C(F)(F)F)nc3c2CCN(c2cc(O)cc4ccccc24)C3)CC1 [Compound 45, trifluoroacetic acid] ) reads > 1 µM

Field EC50 (entry C=CC(=O)N1CCN(c2nc(OC[C@@H]3CCCN3C(=O)C3CCN(Cc4ccc(-n5c(O)nnc5-c5cc(C(C)C)c(O)cc5O)cc4)CC3)nc3c2CCN(c2cccc4cccc(C)c24)C3)C[C@@H]1CC#N [Compound 155, trifluoroacetic acid] ) reads > 1 µM

Field EC50 (entry CCCc1cc(-c2nnc(O)n2-c2ccc(CNC(=O)CCNc3nc4c(c(N5CCN(C(=O)CC)CC5)n3)CCN(c3cc(O)cc5ccccc35)C4)cc2)c(O)cc1O [Compound 32, trifluoroacetic acid] ) reads > 1 µM

Field EC50 (entry CCC(=O)N1CCN(c2nc(NCCC(=O)N3CCN(Cc4ccc5c(c4)CN(C(=O)c4cc(C(C)C)c(O)cc4O)C5)CC3)nc3c2CCN(c2cc(O)cc4ccccc24)C3)CC1 [Compound 57, trifluoroacetic acid] ) reads > 1 µM

Field EC50 (entry C=CC(=O)N1CCN(c2nc(NCCC(=O)N3CCN(c4ccc(-n5c(O)nnc5-c5cc(C(C)C)c(O)cc5O)cc4)CC3)nc3c2CCN(c2cc(O)cc4ccccc24)C3)CC1 [Compound 2, trifluoroacetic acid] ) reads > 1 µM

Field EC50 (entry C=C(F)C(=O)N1CCN(c2nc(N3CCC(CN4CCN(Cc5ccc(-n6c(C(=O)NCC(F)(F)F)nnc6-c6cc(CC)c(O)cc6O)cc5)CC4)CC3)nc3c2CCN(c2cccc4cccc(Cl)c24)C3)C[C@@H]1CC#N [Compound 138] ) reads > 1 µM

Field EC50 (entry CC(C)c1cc(-c2nnc(C(=O)NCC(F)(F)F)n2-c2ccc(CC3CCN(Cc4ccc(CNC(=O)CCNc5nc6c(c(N7CCN(C(=O)C(C)(C)C)CC7)n5)CCN(c5cc(O)cc7ccccc57)C6)cc4)CC3)cc2)c(O)cc1O [Compound 156] ) reads 0.1 to 1 µM

Then there is this compound:
Field EC50 (entry C=CC(=O)N1CCN(c2nc(NCCC(=O)N3CCC(Cc4ccc(CN(C)Cc5ccc(-n6c(O)nnc6-c6cc(C(C)C)c(O)cc6O)cc5)cc4)CC3)nc3c2CCN(c2cc(O)cc4ccccc24)C3)CC1 [Compound 19, trifluoroacetic acid] ) reads 0.1 to 1 µM

* * *

Test system: NCI-H358 human non-small cell lung cancer
Measurement Description: NCI-H358 CCK-8 proliferation assay
Format: cell-based
Condition: NCI-H358 cells, 72 hr
Quick list: EC50 per entry.

# example entries with known answers
Field EC50 (entry CCc1cc(-c2nnc(O)n2-c2ccc(CNC(=O)CCNc3nc4c(c(N5CCN(C(C)=O)CC5)n3)CCN(c3cc(O)cc5ccccc35)C4)c(C(F)(F)F)c2)c(O)cc1O ) reads > 1000 nM

Field EC50 (entry C=CC(=O)N1CCN(c2nc(OC[C@@H]3CCCN3C(=O)C3CCN(Cc4ccc(-n5c(O)nnc5-c5cc(C(C)C)c(O)cc5O)cc4)CC3)nc3c2CCN(c2cccc4cccc(Cl)c24)C3)C[C@@H]1CC#N ) reads 100 to 1000 nM

Field EC50 (entry C=CC(=O)N1CCN(c2nc(NCCC(=O)NCc3ccc(CN4CCC(Cc5ccc(-n6c(C(=O)NCC(F)(F)F)nnc6-c6cc(C(C)C)c(O)cc6O)cc5)CC4)cc3)nc3c2CCN(c2cc(O)cc4ccccc24)C3)CC1 ) reads 100 to 1000 nM

Field EC50 (entry CCc1cc(-c2nnc(O)n2-c2ccc(CNC(=O)CCNc3nc4c(c(N5CCN(C(C)=O)CC5)n3)CCN(c3cc(O)cc5ccccc35)C4)cc2)c(O)cc1O ) reads > 1000 nM

Continuing:
Field EC50 (entry CC(=O)N1CCN(c2nc(NCCC(=O)NCCc3ccc(-n4c(O)nnc4-c4cc(C(C)C)c(O)cc4O)cc3)nc3c2CCN(c2cc(O)cc4ccccc24)C3)CC1 ) reads > 1000 nM

Field EC50 (entry CC(=O)N1CCN(c2nc(NCCC(=O)N[C@H](C)c3ccc(CN4CCC(Cc5ccc(-n6c(O)nnc6-c6cc(C(C)C)c(O)cc6O)cc5)CC4)cc3)nc3c2CCN(c2cc(O)cc4ccccc24)C3)CC1 ) reads 100 to 1000 nM

Field EC50 (entry C=CC(=O)N1CCN(c2nc(NCCC(=O)NCC3CCN(C(=O)C4CCN(Cc5ccc(-n6c(O)nnc6-c6cc(CC)c(O)cc6O)cc5)CC4)CC3)nc3c2CCN(c2cccc4ccccc24)C3)C[C@H]1CC#N ) reads > 1000 nM

Field EC50 (entry C=C(F)C(=O)N1CCN(c2nc(OC[C@@H]3CCCN3CCCOCCC(=O)NCc3ccc(-n4c(O)nnc4-c4cc(C(C)C)c(O)cc4O)cc3)nc3c2CCN(c2cccc4cccc(Cl)c24)C3)C[C@@H]1CC#N ) reads > 1000 nM

Field EC50 (entry CC(=O)N1CCN(c2nc(NCCC(=O)NCCOCCOc3ccc(-n4c(O)nnc4-c4cc(C(C)C)c(O)cc4O)cc3)nc3c2CCN(c2cc(O)cc4ccccc24)C3)CC1 ) reads > 1000 nM
